From: ChEMBL document CHEMBL1154167

assay: Metabolic stability in human liver microsomes assessed as hepatic extraction ratio at 1 uM; type: ADME, Microsome; details: read-out: ERH
hepatic extraction ratio at 1 µM: recorded values

structure.notation: CC[C@H]1OC(=O)[C@H](C)C(=O)[C@H](C)[C@@H](O[C@@H]2O[C@H](C)C[C@H](N(C)C)[C@H]2O)[C@](C)(OC)C[C@@H](C)C(=O)[C@H](C)[C@H]2N(CCCCn3cnc(-c4cccnc4)c3)C(=O)O[C@]12C
bound.type: =
hepatic extraction ratio at 1 µM: 0.7

structure.notation: CC[C@H]1OC(=O)[C@H](C)C(=O)[C@H](C)[C@@H](O[C@@H]2O[C@H](C)C[C@H](N(C)C)[C@H]2O)[C@](C)(O)C[C@@H](C)C(=O)[C@H](C)[C@H]2N(C3CN(Cc4c(OC)cnc5ncccc45)C3)C(=O)O[C@]12C
bound.type: =
hepatic extraction ratio at 1 µM: 0.8

structure.notation: CC[C@H]1OC(=O)[C@H](C)C(=O)[C@H](C)[C@@H](O[C@@H]2O[C@H](C)C[C@H](N(C)C)[C@H]2O)[C@](C)(O)C[C@@H](C)C(=O)[C@H](C)[C@H]2N(C3CN(Cc4c(O)cnc5ncccc45)C3)C(=O)O[C@]12C
bound.type: <
hepatic extraction ratio at 1 µM: 0.3

structure.notation: CC[C@H]1OC(=O)[C@H](C)C(=O)[C@H](C)[C@@H](O[C@@H]2O[C@H](C)C[C@H](N(C)C)[C@H]2O)[C@](C)(O)C[C@@H](C)C(=O)[C@H](C)[C@H]2N(C3CN([C@H](C)c4ccnc5ncccc45)C3)C(=O)O[C@]12C
bound.type: =
hepatic extraction ratio at 1 µM: 0.3

structure.notation: CC[C@H]1OC(=O)[C@H](C)C(=O)[C@H](C)[C@@H](O[C@@H]2O[C@H](C)C[C@H](N(C)C)[C@H]2O)[C@](C)(O)C[C@@H](C)C(=O)[C@H](C)[C@H]2N(C3CN(Cc4ccnc5ncccc45)C3)C(=O)O[C@]12C
bound.type: =
hepatic extraction ratio at 1 µM: 0.6

structure.notation: CC[C@H]1OC(=O)[C@H](C)C(=O)[C@H](C)[C@@H](O[C@@H]2O[C@H](C)C[C@H](N(C)C)[C@H]2O)[C@](C)(O)C[C@@H](C)C(=O)[C@H](C)[C@H]2N(C3CN(Cc4c(O)cnc5cccnc45)C3)C(=O)O[C@]12C
bound.type: <
hepatic extraction ratio at 1 µM: 0.3

structure.notation: CC[C@H]1OC(=O)[C@H](C)C(=O)[C@H](C)[C@@H](O[C@@H]2O[C@H](C)C[C@H](N(C)C)[C@H]2O)[C@](C)(O)C[C@@H](C)C(=O)[C@H](C)[C@H]2N(C3CN(Cc4ccnc5cccnc45)C3)C(=O)O[C@]12C
bound.type: =
hepatic extraction ratio at 1 µM: 0.7
